EXPERIMENTAL_SYSTEM: UniProt:Q9UBN7
Sequence (Q9UBN7 whole entry, canonical isoform): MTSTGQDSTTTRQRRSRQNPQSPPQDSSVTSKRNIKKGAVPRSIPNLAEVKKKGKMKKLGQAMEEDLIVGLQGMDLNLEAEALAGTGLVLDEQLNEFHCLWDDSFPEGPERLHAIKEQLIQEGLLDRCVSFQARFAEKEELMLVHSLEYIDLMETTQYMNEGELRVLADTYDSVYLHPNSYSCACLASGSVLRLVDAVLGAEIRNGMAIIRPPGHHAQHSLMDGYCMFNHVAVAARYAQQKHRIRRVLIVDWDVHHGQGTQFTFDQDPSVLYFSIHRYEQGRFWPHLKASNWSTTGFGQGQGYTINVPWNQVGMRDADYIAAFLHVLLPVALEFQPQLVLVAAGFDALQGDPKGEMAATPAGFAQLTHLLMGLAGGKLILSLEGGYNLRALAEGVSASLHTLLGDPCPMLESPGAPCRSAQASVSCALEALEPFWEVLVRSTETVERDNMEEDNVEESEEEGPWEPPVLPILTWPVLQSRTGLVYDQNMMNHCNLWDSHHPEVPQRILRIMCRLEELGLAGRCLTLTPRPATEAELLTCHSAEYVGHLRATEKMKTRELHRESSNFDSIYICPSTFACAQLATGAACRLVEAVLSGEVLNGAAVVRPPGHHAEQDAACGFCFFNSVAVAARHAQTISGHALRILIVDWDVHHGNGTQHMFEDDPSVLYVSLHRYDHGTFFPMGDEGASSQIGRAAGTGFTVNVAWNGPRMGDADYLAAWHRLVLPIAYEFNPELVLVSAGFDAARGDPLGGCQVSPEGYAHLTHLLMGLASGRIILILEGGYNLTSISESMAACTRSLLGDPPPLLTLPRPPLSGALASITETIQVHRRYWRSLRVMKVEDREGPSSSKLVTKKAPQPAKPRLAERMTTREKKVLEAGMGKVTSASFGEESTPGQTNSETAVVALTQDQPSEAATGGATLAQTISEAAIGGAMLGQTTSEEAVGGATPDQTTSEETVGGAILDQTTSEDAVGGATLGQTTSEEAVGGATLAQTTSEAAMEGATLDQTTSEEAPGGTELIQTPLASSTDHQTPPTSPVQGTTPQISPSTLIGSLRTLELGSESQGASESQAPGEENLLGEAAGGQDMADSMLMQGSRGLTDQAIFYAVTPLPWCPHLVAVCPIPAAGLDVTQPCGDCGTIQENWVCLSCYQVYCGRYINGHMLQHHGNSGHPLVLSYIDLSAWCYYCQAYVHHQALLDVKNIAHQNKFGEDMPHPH
ASSAY_NOTES: Fluor de Lys HDAC isoform assay, HDAC6
TEST_READOUT: pIC50
Quick note: pIC50 means taking -log10 of the concentration in moles per liter.

*Q* Param item = "O=C(CCCCCCC(=O)N(O)Cc1ccccc1)Nc1ccccc1" ; retrieve measured pIC50.
*A* 3.54

Where do the numbers come from? From paper PMC6927578.
